Target: recombinant human Syk (GST-hSyk fusion protein) (Homo sapiens, UniProt P43405)
Construct: purchased Carna Biosciences 08-176
Experiment: Homogeneous Time-Resolved Fluorescence (HTRF) assay for the recombinant human Syk enzyme
Assay type: biochemical
Settings: IC50 class; 10-dose titration, 25 μM ATP; read-out: rhSYK Activity
Each entry below lists one item and its recorded IC50 value.
measure: IC50

>>> recorded_result("Cc1cc(Nc2nccc(C(F)(F)F)n2)cc(-c2cnn(C(C)C(O)C(N)=O)c2)c1 (stereo not shown) [Example 7.5]")
"≤ 100 nM"
>>> recorded_result("Cc1ccnc(Nc2cccc(-c3cnn(C[C@](C)(O)CO)c3)c2)n1")
"100 to 1000 nM"
>>> recorded_result("Cc1cc(Nc2nccc(C(F)(F)F)n2)cc(-c2cn[nH]c2)n1")
"100 to 1000 nM"
>>> recorded_result("Cc1cc(Nc2nccc(C(F)(F)F)n2)cc(-c2cnn(CCCC(=O)O)c2)c1")
"≤ 100 nM"

----------
Biological target: recombinant human Syk (GST-hSyk fusion protein) (Homo sapiens, UniProt P43405)
Construct: purchased Carna Biosciences 08-176
Assay: Homogeneous Time-Resolved Fluorescence (HTRF) assay for the recombinant human Syk enzyme
Type: biochemical
Settings: IC50 class; 10-dose titration, 25 μM ATP; read-out: rhSYK Activity
measure: IC50

>>> recorded_result("Cc1cc(Nc2nccc(C(F)(F)F)n2)cc(-c2cnn(C[C@H](C)CO)c2)c1")
"≤ 100 nM"
>>> recorded_result("Cc1cc(Nc2nccc(C(F)(F)F)n2)cc(-c2cnn(C3CCC(C(=O)OC(C)(C)C)CC3)c2)c1 (stereo not shown)")
"1000 to 10000 nM"
>>> recorded_result("Cc1cc(Nc2nccc(C(F)F)n2)cc(-c2cnn(CCN)c2)c1")
"≤ 100 nM"
>>> recorded_result("Cc1cc(Nc2nccc(C(F)(F)F)n2)cc(-c2cnn(CCNC(N)=O)c2)c1")
"≤ 100 nM"

----------
Each entry below lists one item and its recorded pIC50 value.
Target: recombinant human Syk (GST-hSyk fusion protein) (Homo sapiens, UniProt P43405)
Construct: purchased Carna Biosciences 08-176
Experiment: Homogeneous Time-Resolved Fluorescence (HTRF) assay for the recombinant human Syk enzyme
Format: biochemical
Settings: IC50 class; 10-dose titration, 25 μM ATP; read-out: rhSYK Activity
pIC50: −log10 of the molar value.
measure: pIC50

>>> recorded_result("Cc1cc(Nc2nccc(C(F)F)n2)cc(-c2cnn(CC3OC(=O)NC3C)c2)c1 (single isomer, unassigned) [Example 23.14]")
"≥ 7.00"
>>> recorded_result("Cc1cc(Nc2nccc(C(F)F)n2)cc(-c2cn[nH]c2)c1 [Example 1.65]")
"≥ 7.00"
>>> recorded_result("COc1ccc(OCC(O)Cn2cc(-c3cc(C)cc(Nc4nccc(C(F)(F)F)n4)c3)cn2)cc1 (centres unmarked) [Example 5.11]")
"6.00 to 7.00"
>>> recorded_result("Cc1cc(Nc2nccc(C(F)(F)F)n2)cc(-c2cnn(CC3CNC(=O)O3)c2)c1 (centres unmarked) [Example 2.45]")
"≥ 7.00"
>>> recorded_result("CC(=O)N1CCN(C(=O)Cn2cc(-c3cc(C)cc(Nc4nccc(C(F)(F)F)n4)c3)cn2)CC1 [Example 3.7]")
"≥ 7.00"
>>> recorded_result("Cc1cc(Nc2nccc(C(F)(F)F)n2)cc(-c2cnn(C3CCOC3=O)c2)c1 (centres unmarked) [Example 3.17]")
"≥ 7.00"
>>> recorded_result("Cc1cc(Nc2nccc(C(F)(F)F)n2)cc(-c2cnn(CC(C)(O)C(N)=O)c2)c1 (single isomer, unassigned) [Example 8.1]")
"≥ 7.00"
>>> recorded_result("Cc1ccnc(Nc2cccc(-c3cnn(CCC(=O)O)c3)n2)c1 [Example 1.18]")
"6.00 to 7.00"
